molecular target: Genome polyprotein (dengue virus type 2); assay: Dengue-2 NS5 methyltransferase inhibitors, primary screen, biochemical, confirmation dose response (AID 588689); type: functional
Activity calls are given as the source filed them.
Measured quantity: IC50

The examples below pair each entry with its known result.
- Compound: "O=C(O)C(c1ccccc1)N1C(=O)/C(=C/c2cccs2)SC1=S (centres undefined)"
  Value reported: "46.9 µM (active)"
- Compound: "N#Cc1c(-c2ccccc2)nc(SCc2cccc(C(F)(F)F)c2)[nH]c1=O"
  Value reported: "42.7 µM (active)"
- Compound: "COc1ccccc1-c1cc(C(=O)Nc2sc3c(c2C#N)CCC(C)C3)c2ccccc2n1 (centres undefined)"
  Value reported: "97.8 µM (active)"
- Compound: "Cc1ccc(S(=O)(=O)N2[C@@H](c3ccc(Br)cc3)C(C(=O)O)=CC[C@H]2c2ccc(Cl)c(Cl)c2)cc1"
  Value reported: "42.9 µM (active)"
- Compound: "CC1=NNC(=O)/C1=C\\c1cn(-c2ccccc2)nc1-c1cccs1"
  Value reported: "> 100 µM (active)"

# map each compound to its IC50
1. CCOC(=O)c1ccc(CC(=O)c2ccc(O)c(O)c2O)o1
2. COC(=O)c1ccc(N2NC(=O)/C(=C/c3ccc(-c4ccc(Cl)c(C(=O)O)c4)o3)C2=O)cc1
3. CC1(C)CC(=O)C(C(c2ccc(Br)cc2)C2C(=O)CC(C)(C)CC2=O)C(=O)C1
4. C=CCOc1c(Br)cc(/C=C2/C(=O)ON=C2C)cc1OC

1. 33.6 µM (active)
2. 11.9 µM (active)
3. 79.3 µM (active)
4. > 100 µM (active)

----------
target: Microphthalmia-associated transcription factor (Homo sapiens, UniProt O75030); experiment: TRPM1 promoter luciferase signal decrease, dose response, MITF inhibitor project, cell-based, SK-MEL-5, cherry-picked, set 3 (AID 493073); type: functional
Sequence (O75030 whole entry): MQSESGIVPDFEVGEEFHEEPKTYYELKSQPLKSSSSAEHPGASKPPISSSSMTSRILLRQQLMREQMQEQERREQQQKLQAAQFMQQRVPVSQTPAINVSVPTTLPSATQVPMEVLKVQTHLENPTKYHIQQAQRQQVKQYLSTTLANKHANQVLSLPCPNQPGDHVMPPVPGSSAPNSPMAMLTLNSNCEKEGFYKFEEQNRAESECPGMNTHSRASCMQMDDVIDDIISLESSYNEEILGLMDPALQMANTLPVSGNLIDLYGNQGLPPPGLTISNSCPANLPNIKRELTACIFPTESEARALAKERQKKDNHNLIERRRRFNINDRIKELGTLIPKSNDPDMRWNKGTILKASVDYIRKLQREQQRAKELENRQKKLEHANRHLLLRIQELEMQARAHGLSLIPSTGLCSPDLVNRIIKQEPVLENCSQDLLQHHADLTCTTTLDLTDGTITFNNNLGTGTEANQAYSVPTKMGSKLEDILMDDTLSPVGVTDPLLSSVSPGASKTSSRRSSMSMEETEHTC
Calls of active or inactive are those of the source.
Measured quantity: AC50

The examples below pair each entry with its known result.
- Compound: "Cc1cc(NCCCn2ccnc2)n2ncc(-c3ccccc3)c2n1"
  Tested system: "Microphthalmia-associated transcription factor (Homo sapiens, UniProt O75030)"
  Value reported: "11 µM (active)"
- Compound: "COc1ccccc1-c1cc(C(F)(F)F)nc(S(C)(=O)=O)n1"
  Tested system: "Microphthalmia-associated transcription factor (Homo sapiens, UniProt O75030)"
  Value reported: "6.81 µM (active)"
- Compound: "Cc1ccc(NC2=C(Cl)C(=O)c3ccccc3C2=O)cc1"
  Tested system: "Microphthalmia-associated transcription factor (Homo sapiens, UniProt O75030)"
  Value reported: "5.25 µM (active)"

# map each compound to its AC50
1. CN(C)S(=O)(=O)c1ccc(-c2csc(N/N=C/c3ccc(O)cc3)n2)cc1
2. COCCn1c(C)cc(C(=O)COC(=O)c2ccccc2Br)c1C
3. Cc1ccc(C2=NN(C(=O)CCl)C(c3cccs3)C2)o1 (configuration not stated)
4. CC1CCN(c2nc3ccc(C(=O)O)cc3s2)CC1

["4.6 µM (active)", "1.14 µM (active)", "6.1 µM (active)", "1.25 µM (active)"]

----------
biological target: UniProt P55789; assay: inhibitors of human ALR sulfhydryl oxidase, dose response, biochemical, H2O2 detection, luminescence, cherry-pick (AID 493248)
Sequence (P55789 whole entry): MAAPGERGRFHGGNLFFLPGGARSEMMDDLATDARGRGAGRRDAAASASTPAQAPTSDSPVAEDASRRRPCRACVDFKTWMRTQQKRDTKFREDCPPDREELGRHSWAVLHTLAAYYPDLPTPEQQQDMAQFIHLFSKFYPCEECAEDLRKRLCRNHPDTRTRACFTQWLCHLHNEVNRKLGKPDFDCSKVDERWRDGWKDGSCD
Activity calls are given as the source filed them.
Can you answer with just one of these options? YES for active, NO for inactive

- Compound: "CCN1/C(=C/C=C/c2sc3ccccc3[n+]2CC)Sc2ccccc21"
  Qualitative label: "YES"

Could you now consider this next compound?
Record request — test call for CCNc1ccc(S(=O)(=O)N(C)C)cc1NCC(=O)Nc1ccccc1F YES

----------
target: Induced myeloid leukemia cell differentiation protein Mcl-1 (Homo sapiens, UniProt Q07820); format: functional
Sequence (Q07820 whole entry): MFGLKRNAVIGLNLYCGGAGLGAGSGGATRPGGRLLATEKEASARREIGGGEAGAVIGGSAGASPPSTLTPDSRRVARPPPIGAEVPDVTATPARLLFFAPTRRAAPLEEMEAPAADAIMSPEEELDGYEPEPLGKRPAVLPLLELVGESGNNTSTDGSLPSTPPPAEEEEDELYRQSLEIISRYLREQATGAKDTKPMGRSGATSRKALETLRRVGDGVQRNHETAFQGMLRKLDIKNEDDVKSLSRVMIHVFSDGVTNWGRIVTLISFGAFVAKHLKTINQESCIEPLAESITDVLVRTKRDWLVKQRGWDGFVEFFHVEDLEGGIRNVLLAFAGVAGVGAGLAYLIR
Activity calls are given as the source filed them.
Measured quantity: IC50

The examples below pair each entry with its known result.
- Substance smiles: "Oc1ccc(N2CCN(c3ncnc4sc5c(c34)CCC5)CC2)cc1"
  Value reported: "4.31 µM (active)"
- Substance smiles: "CCCOc1ccc(C(=O)Nc2ccc(N(C)C)cc2)cc1"
  Value reported: "3.27 µM (not active)"
- Substance smiles: "CCCC1=NN2C(=N)/C(=C\\c3ccc(SCc4ccco4)o3)C(=O)N=C2S1"
  Value reported: "3.18 µM (active)"
- Substance smiles: "O=[N+]([O-])c1cc(Cl)cc(/C=N/NC(=S)Nc2cc(S(=O)(=O)N3CCOCC3)ccc2Cl)c1O"
  Value reported: "2.19 µM (active)"
- Substance smiles: "C/C(=N/NC(=O)c1cc2ccccc2cc1O)C1C(=O)c2ccccc2C1=O"
  Value reported: "2.11 µM (active)"

Next up:
So, COc1ccc(NC(=O)CSc2ncnc3c2sc2ccccc23)c(OC)c1 ? Its IC50 was 10.3 µM (not active)

----------
molecular target: Histone-lysine N-methyltransferase NSD2 (Homo sapiens, UniProt O96028); assay type: biochemical
Sequence (O96028 whole entry): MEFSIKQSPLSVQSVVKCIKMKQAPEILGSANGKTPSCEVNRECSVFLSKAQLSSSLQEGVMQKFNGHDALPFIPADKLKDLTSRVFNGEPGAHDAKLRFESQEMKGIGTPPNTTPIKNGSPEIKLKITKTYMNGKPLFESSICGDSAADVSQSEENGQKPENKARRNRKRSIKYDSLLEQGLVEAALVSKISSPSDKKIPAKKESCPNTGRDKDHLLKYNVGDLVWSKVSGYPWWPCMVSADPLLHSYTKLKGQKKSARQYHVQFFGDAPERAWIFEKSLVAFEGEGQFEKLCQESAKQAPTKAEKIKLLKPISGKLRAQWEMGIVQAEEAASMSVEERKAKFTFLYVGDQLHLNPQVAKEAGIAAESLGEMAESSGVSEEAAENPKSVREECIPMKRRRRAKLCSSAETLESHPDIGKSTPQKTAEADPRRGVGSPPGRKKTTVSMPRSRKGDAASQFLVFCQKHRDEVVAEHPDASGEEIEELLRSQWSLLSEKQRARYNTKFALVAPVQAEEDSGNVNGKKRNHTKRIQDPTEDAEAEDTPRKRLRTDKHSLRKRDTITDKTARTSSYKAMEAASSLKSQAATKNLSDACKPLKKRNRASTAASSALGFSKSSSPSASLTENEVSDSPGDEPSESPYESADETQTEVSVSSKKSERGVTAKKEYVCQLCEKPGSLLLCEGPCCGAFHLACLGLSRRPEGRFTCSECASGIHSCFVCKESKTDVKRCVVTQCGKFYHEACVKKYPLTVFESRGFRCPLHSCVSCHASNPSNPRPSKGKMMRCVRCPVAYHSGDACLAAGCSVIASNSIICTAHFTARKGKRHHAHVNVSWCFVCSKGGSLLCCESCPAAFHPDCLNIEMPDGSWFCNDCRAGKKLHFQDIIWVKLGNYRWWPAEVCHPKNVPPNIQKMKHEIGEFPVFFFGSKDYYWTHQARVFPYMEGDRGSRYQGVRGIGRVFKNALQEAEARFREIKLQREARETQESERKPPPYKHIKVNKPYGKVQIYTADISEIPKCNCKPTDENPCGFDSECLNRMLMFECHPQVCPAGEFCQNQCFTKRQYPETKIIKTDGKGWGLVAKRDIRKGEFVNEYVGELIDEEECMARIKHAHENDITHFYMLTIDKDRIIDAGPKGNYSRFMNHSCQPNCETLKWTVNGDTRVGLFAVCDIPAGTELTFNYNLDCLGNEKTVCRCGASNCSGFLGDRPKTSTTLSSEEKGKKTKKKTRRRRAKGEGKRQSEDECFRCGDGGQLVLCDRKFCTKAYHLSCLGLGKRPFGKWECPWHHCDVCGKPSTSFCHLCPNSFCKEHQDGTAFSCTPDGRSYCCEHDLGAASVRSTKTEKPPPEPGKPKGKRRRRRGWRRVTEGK
The source made the active and inactive calls.
Can you answer with just one of these options? True for active, False for inactive

// below: answered compounds
- Substance smiles: "Cc1cc2ccccn2c1C(=S)NC(=O)c1ccccc1"
  Qualitative label: "False"
- Substance smiles: "COc1ccc(CN2C(=O)NC(=O)/C(=C\\c3ccco3)C2=O)cc1"
  Qualitative label: "True"
- Substance smiles: "O=C(NNc1cc(N2CCOCC2)nc(N2CCOCC2)n1)c1ccc([N+](=O)[O-])cc1"
  Qualitative label: "True"
- Substance smiles: "Cc1nnc(N/N=C\\c2ccc(-c3ccccc3[N+](=O)[O-])o2)n1N"
  Qualitative label: "True"

Record request — test call for CCOC(=O)c1ccc(CC(=O)c2ccc(O)c(O)c2O)o1 True

----------
biological target: Apoptotic protease-activating factor 1 (Homo sapiens, UniProt O14727); format: functional
Sequence (O14727 whole entry): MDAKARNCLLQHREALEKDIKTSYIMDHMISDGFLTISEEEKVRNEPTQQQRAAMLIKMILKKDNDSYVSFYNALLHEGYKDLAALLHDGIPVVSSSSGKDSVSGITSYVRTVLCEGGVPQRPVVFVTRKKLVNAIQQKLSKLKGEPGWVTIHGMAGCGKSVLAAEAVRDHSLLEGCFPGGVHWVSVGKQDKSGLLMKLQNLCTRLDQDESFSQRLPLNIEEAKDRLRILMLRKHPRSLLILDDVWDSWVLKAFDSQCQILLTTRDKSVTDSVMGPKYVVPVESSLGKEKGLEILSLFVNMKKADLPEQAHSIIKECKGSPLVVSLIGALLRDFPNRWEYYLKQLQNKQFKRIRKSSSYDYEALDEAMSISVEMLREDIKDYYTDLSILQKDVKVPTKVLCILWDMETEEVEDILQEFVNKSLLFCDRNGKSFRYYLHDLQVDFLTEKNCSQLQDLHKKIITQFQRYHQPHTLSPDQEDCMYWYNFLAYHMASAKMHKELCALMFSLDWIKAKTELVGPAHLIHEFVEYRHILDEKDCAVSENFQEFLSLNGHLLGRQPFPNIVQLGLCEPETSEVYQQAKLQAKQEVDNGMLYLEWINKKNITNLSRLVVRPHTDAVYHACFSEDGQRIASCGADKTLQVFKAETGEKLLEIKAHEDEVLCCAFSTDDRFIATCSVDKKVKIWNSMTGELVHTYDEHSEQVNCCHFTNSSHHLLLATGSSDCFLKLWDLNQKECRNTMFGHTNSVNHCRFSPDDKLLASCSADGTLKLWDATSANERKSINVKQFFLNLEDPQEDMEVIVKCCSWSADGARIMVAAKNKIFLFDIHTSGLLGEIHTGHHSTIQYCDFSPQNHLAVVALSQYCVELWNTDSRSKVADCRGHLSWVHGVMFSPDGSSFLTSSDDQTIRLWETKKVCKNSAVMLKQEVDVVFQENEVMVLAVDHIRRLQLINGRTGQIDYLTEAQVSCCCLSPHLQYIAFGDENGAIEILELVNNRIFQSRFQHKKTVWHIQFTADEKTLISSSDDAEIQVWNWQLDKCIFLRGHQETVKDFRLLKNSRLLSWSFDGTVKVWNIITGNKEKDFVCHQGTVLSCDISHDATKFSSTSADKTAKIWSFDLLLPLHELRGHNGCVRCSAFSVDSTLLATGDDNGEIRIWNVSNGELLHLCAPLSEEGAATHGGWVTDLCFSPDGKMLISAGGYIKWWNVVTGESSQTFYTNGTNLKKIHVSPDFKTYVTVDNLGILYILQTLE
Active and inactive are the calls of the source.
For each of the molecules below, state its IC50.

The examples below pair each entry with its known result.
- Substance smiles: "Nc1c(N2CCCC2)cc(Cl)c2nonc12"
  IC50: "11 µM (active)"
- Substance smiles: "O=C(NNc1cc(N2CCOCC2)nc(N2CCOCC2)n1)c1ccc([N+](=O)[O-])cc1"
  IC50: "13.6 µM (active)"
- Substance smiles: "CCN1/C(=C/C=C/c2sc3ccccc3[n+]2CC)Sc2ccccc21"
  IC50: "20.8 µM (active)"

So, Cc1ccc(S(=O)(=O)NC2=CC(=Nc3ccc(O)cc3)C(=O)c3ccccc32)cc1 ? Its IC50 was 2.14 µM (active)

----------
assay: Luminescence Cell-Based Dose Retest to Confirm Inhibitors of Cancer Stem Cells. [Related pubchem assays (depositor defined):AID2717, AID2721]; assay type: functional; details: Homo sapiens
Active and inactive are the calls of the source.
For each of the molecules below, state its AC50.

The examples below pair each entry with its known result.
- Substance smiles: "Cc1ccc(S(=O)(=O)N2[C@@H](c3ccc(C(C)(C)C)cc3)C(C(=O)O)=CC[C@H]2c2cccc(Cl)c2)cc1"
  Measured quantity: "AC50"
  Value reported: "2.86 µM (active)"
- Substance smiles: "O=Cc1cc2ccccc2nc1SCc1ccc(Cl)cc1"
  Measured quantity: "AC50"
  Value reported: "3.66 µM (active)"
- Substance smiles: "COc1ccccc1-c1cc(C(F)(F)F)nc(S(C)(=O)=O)n1"
  Measured quantity: "AC50"
  Value reported: "5.07 µM (active)"
- Substance smiles: "O=C(/C=C/c1ccc2c(c1)OCO2)Nc1nc(-c2ccccc2)cs1"
  Measured quantity: "AC50"
  Value reported: "0.943 µM (active)"

Next up:
So, Cc1ccc(NC2=C(Cl)C(=O)c3ccccc3C2=O)cc1 ? Its AC50 was 1.17 µM (active)

----------
tested on: H4; assay: Luminescence Cell-Based Dose Response HTS to Identify Activators of 5'UTR Stem-Loop Driven Prion Protein mRNA Translation in H4 Neuroglioblastoma Cells. [Related pubchem assays: 1829 (Project Summary), 1814 (Primary HTS)]; format: functional; conditions: Homo sapiens
Calls of active or inactive are those of the source.
Measured quantity: EC50

The examples below pair each entry with its known result.
- Compound: "c1ccc2c(c1)Cn1nc(Cc3nc4c(s3)CCCC4)nc1-2"
  Tested system: "H4"
  EC50: "10.3 µM (active)"
- Compound: "COC(=O)c1ccc(/N=C/c2c(-c3ccccc3)n[nH]c2O)cc1"
  Tested system: "H4"
  EC50: "> 120 µM (not active)"
- Compound: "Cn1c(=O)c2c(nc(NCC3CCCC(CN)C3)n2Cc2ccc(Cl)cc2Cl)n(C)c1=O (stereo unspecified)"
  Tested system: "H4"
  EC50: "> 120 µM (not active)"
- Compound: "O=C(Nc1cccnc1)c1cc(-c2cc(Cl)ccc2O)n[nH]1"
  Tested system: "H4"
  EC50: "0.608 µM (active)"
- Compound: "O=c1c(-c2cc3ccccc3o2)[n+]([O-])c2ccccc2n1OCc1ccccn1"
  Tested system: "H4"
  EC50: "65.5 µM (inconclusive)"

Next up:
Record for O=C1/C(=C/Nc2ccc(O)cc2)c2ccccc2C(=O)N1Cc1ccccc1 under target or system H4: EC50 reported as 33 µM (active)
